Origin of values: patent US20030180744

# TARGET SYSTEM: T1, KGF (hKGF) (Homo sapiens, UniProt P21781 P21781:32-194)
# T1 sequence: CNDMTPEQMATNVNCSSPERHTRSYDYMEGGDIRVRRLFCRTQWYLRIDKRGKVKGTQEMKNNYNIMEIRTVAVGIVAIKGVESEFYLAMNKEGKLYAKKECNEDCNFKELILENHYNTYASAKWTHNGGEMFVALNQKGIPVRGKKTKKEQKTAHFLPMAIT
# TEST PROTOCOL: competition; PC-3 cells
# TEST PARAMETERS: tags: Upstate Biotechnology
Catalogue of pIC50 values
To interpret pIC50, take it as minus log10 of a concentration measured in moles per litre.

The cases that follow already have their pIC50 on record.
- BINDER: "37F (ssRNA, 2'-F pyrimidines) RNA: GGGAGGACGAUGCGGGCCCGAUCUACUGCAUUACCGAAACGAUUUCCCCACUGUGCAGACGACUCGCCCGA"
  pIC50: 7.70
- BINDER: "15F (ssRNA, 2'-F pyrimidines) RNA: GGGAGGACGAUGCGGUCAUGGUGUCUUUCCACAGCUCUUCCCAUGAUCGCCCGGCCAGACGACUCGCCCGA"
  pIC50: 7.70
- BINDER: "10F (ssRNA, 2'-F pyrimidines) RNA: GGGAGGACGAUGCGGGACCAGAUGGCGGAUUUUUCAGCAAUCCUCCCCCGCUGCCCAGACGACUCGCCCGA"
  pIC50: 7.52
- BINDER: "13F (ssRNA, 2'-F pyrimidines) RNA: GGGAGGACGAUGCGGCACCUUAGACCUGUCCUCCAAGCGUGAGUUGCUGUGGCCCAGACGACUCGCCCGA"
  pIC50: 7.52
- BINDER: "2N (ssRNA, 2'-NH2 pyrimidines) RNA: GGGAGGACGAUGCGGGCGGGAAGGUCCGAAGACCGGCGAAAGGAACGAGAUUGCCCAGACGACUCGCCCGA"
  pIC50: 6.70
- BINDER: "6N (ssRNA, 2'-NH2 pyrimidines) RNA: GGGAGGACGAUGCGGGCAGGGAGCAAUGAACUCAAGUCAAGCCGGUGCACGUGGGCAGACGACUCGCCCGA"
  pIC50: 7.10

Report pIC50, nothing else, for this binder: 43F (ssRNA, 2'-F pyrimidines) RNA: GGGAGGACGAUGCGGUGUAGUUUCCCUGUAUGCCAUUCUUUCCCAUGCCGCACGCCAGACGACUCGCCCGA 7.10
